Recorded TGI for the following compounds
Tested on: CCRF-CEM leukemia
Experiment: NCI tumour cell line growth inhibition, 48 h
The response must be a number in µM with no trailing unit.

- CC(=O)Oc1ccc(C2COc3cc(OC(C)=O)c(OC(C)=O)cc3C2)cc1 (stereo not given): 58.1

Query string: Would you kindly share the measured TGI for `CSc1ccc(/C=C2\C=C(CC(=O)NCc3ccc(C(=O)c4ccccc4)cc3)c3cc(F)ccc32)cc1` ?
Result string: 38.9

---

System: HCT-116 colon
Test: NCI tumour cell line growth inhibition, 48 h
MEASUREMENT_KIND: GI50

* Cc1cc(N/N=C/c2nc(-c3ccc(Cl)cc3)oc2C)c2cc(Cl)ccc2n1 | 2140 nM
* CCN(CC)CCCC(C)Nc1c2ccc(C)cc2nc2ccc(OC)cc12 (stereo not given) | 585 nM
* Oc1ccccc1-c1nc2c3ccccc3c3ccccc3c2[nH]1 | 10500 nM

Query string: Would you kindly share the measured GI50 for `COC(=O)CCCCCN=Cc1c(O)c(O)c(C(C)C)c2cc(C)c(-c3c(C)cc4c(C(C)C)c(O)c(O)c(C=NCCCCCC(=O)OC)c4c3O)c(O)c12` ?
Result string: 1230 nM

Query string: Further, for `CC(C)[C@H]1C(=O)N[C@@H](CCCN=C(N)N)C(=O)NCC(=O)N[C@@H](CC(=O)O)C(=O)N[C@H](Cc2ccccc2)C(=O)N1C` ?
Result string: 1860 nM

---

Tested on: SNB-19 CNS
Assay: NCI tumour cell line growth inhibition, 48 h
Recorded TGI for the following molecules

Some molecules with recorded TGI:
- C=C(C)C1CC=C(C)C2(C1)OCC(C)(C)C(C)O2 (configuration not stated): 33.3 µM
- COc1ccc2c(c1)[n+]([O-])c(/C(C)=N/NC(=O)CC#N)c[n+]2[O-]: > 100 µM
- COC(=O)C1=C(C(=O)OC)SC(=C(Cl)C(=S)Sc2ccccc2N)S1: > 100 µM
- c1ccc2c(c1)nc1n2CCSC1: > 100 µM
- Fc1cccc(Cl)c1/C=N\N=C1c2ccccc2-c2ccccc21: > 100 µM
- O=c1[nH]c2cc3[nH]c4ncccc4c(=O)c3cc2[nH]1: > 10 µM
- COc1cc(/C=C2/N=C(c3ccccc3)N(C3=NNC4(C(=O)N3)c3ccccc3-c3ccccc34)NC2=O)ccc1O: 87.3 µg/mL
- O=C(NCc1ccc(Cl)cc1)c1cc2sccc2nc1C(F)(F)F: 51.7 µM
- COC(=O)CCC1=C(C)/C(=C/c2[nH]c(-c3ccc[nH]3)cc2OC)N=C1C: 17.5 µM
- Nc1cc(N2CCCC2)nc(=O)n1Cc1ccccc1: > 100 µM

Query string: Would you kindly share the measured TGI for `NNc1nncn1N` ?
Result string: > 100 µM

Query string: Further, for `S=c1nc(-c2cccnc2)[nH][nH]1` ?
Result string: > 100 µM

Query string: Further, for `O=C(OC[C@H]1O[C@@H](OC(=O)c2cc(O)c(O)c(O)c2)[C@H](OC(=O)c2cc(O)c(O)c(O)c2)[C@@H](OC(=O)c2cc(O)c(O)c(O)c2)[C@@H]1OC(=O)c1cc(O)c(O)c(O)c1)c1cc(O)c(O)c(O)c1` ?
Result string: > 100 µM

---

Test system: RXF 393 renal
Assay: NCI tumour cell line growth inhibition, 48 h
MEASUREMENT_KIND: TGI

* C=C(C=O)CCCC(C)[C@@H]1CCC23CC12CCC1[C@@]2(C)CCC(OC(C)=O)C(C)(C)C2CC(OC2OC(COC(C)=O)C(O)C(O)C2O)[C@]13C (some centres undefined) | 11.7 µM
* CC(C)(C)NC(=O)[C@H]1C[C@H]2CCCC[C@H]2CN1C[C@@H](O)[C@H](Cc1ccccc1)NC(=O)[C@H](CC(N)=O)NC(=O)c1ccc2ccccc2n1 | 32.1 µM
* Cc1c2c(OCCCCN3CCN(c4ncccn4)CC3)nn(C)c(=O)c2c(C)n1-c1ccccc1 | 41.8 µM
* CCOC(=O)C(=O)Nc1c(C(C)C)cccc1C(C)C | > 100 µM
* CCCCCCN(CCCCCC)CC(O)c1ccc2c3c(cccc13)CC2 (centres undefined) | 7.21 µM

Query string: Would you kindly share the measured TGI for CCOC(=O)[C@H]1Nc2ccc(OC)cc2C2c3ccccc3CC21 (some centres undefined) ?
Result string: > 100 µM

Query string: Further, for CC(=O)OC1[C@H]2c3cc4c(cc3CN3CCC(=C[C@@H]1O)C23)OCO4 (some centres undefined) ?
Result string: > 100 µM

Query string: Further, for `O=C(NCc1ccc(Cl)cc1)c1cc2sccc2nc1C(F)(F)F` ?
Result string: 67.4 µM

Query string: Further, for CCc1ccc2c(c1)CC1(C2)Cc2cc3c(cc2C1)C(=O)CC3 (centres undefined) ?
Result string: > 100 µM

Query string: Further, for `Nc1ccc(S(=O)(=O)NCc2nccs2)cc1` ?
Result string: > 100 µM

Query string: Further, for `NC(N)=NS(=O)(=O)c1ccc(NC(=O)c2ccc3nc4ccccc4c(Nc4ccc(S(N)(=O)=O)cc4)c3c2)cc1` ?
Result string: > 100 µM

Query string: Further, for O=C1C(Br)=C(c2ccccc2)S(=O)c2ccccc21 (centres undefined) ?
Result string: 24.8 µM
